// data source = patent US8921394B2

Listed below: pIC50 values for each entry.
TEST SYSTEM: human PrCP (Homo sapiens)
Construct: made in house
Sequence (P42785 46-496): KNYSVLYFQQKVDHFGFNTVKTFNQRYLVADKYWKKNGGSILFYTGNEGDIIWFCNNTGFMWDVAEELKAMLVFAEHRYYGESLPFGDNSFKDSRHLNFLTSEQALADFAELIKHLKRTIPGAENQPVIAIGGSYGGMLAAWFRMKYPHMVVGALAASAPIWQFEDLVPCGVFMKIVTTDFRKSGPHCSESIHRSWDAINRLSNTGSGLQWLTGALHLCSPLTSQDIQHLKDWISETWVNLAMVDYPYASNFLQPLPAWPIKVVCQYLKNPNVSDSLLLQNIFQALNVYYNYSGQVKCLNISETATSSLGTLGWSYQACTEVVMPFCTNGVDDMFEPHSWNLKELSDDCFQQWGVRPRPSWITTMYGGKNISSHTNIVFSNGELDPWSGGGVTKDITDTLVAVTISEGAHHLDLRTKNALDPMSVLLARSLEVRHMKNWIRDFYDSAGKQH
ASSAY COMMENT: Prolylcarboxypeptidase (PRCP) enzyme activity assay, fluorescence intensity kinetic assay
Type: biochemical
pIC50: −log10 of the molar value. Where a name gives a salt, the structure may show the parent alone.

COMPOUND	TEST SYSTEM	pIC50
Clc1ccc(CCN2CCC(c3ccccc3)(c3cc(-c4ccc(Cl)cc4)[nH]n3)CC2)cc1 [Example 6, trifluoroacetate salt]	human PrCP (Homo sapiens)	6.76
Cn1nc(C2(c3ccccn3)CCN(CCc3ccccc3)CC2)cc1-c1ccc(F)cc1 [Example 3, bis(trifluoroacetate) salt]	human PrCP (Homo sapiens)	6.30
